- Tested on: SK-OV-3
- measurement_description: NCI tumour cell line growth inhibition, 48 h
Activity calls are given as the source filed them. Rule as the data show it: active = GI50 up to about 1.1 µM and inactive = higher.
Could you please pick one outcome from this set? true (1) (active), false (0) (inactive)

Cc1ccc(/C=C/C(=O)c2sc(-c3cccnc3)nc2C)cc1    false (0)
O=C1N/C(=N/N=C/C(O)C(O)C(O)C(O)CO)N/C1=C\c1c[nH]c2ccccc12 (stereo not given)    false (0)
C=C(C)C(=O)OC1CCC2(C)C(CCC3C2CCC2(C)C(c4ccc(=O)oc4)CC4OC432)C1 (stereo not given)    false (0)
CC(=O)c1cccc(NC(=O)C(=O)c2c(O)oc3ccccc3c2=O)c1    false (0)

Hey, what did the test say about Cc1ccc(NC(=O)CSc2nnc(Cc3ccccc3)o2)c(C)c1 ? false (0)

Input CCOc1cc2c(cc1O)/C(=N\OC)C[C@@H]1[C@@H]2CC[C@]2(C)[C@@H](O)CC[C@@H]12 true (1)

Moving on to the next compound: CC1Cc2c(cc(N)nc2Br)NC1=O (stereo not given) false (0)

// query: NC1=Nc2ccccc2Sc2ccccc21 false (0)

Then what about the compound COc1ccc2c(c1)C(=O)/C(=C/c1ccccc1)C2 ? false (0)

Follow-up entry: CC1=NN(c2nc(N)nc(C(C)Sc3cc(Cl)c(C)cc3S(N)(=O)=O)n2)C(C)(C)C1 (stereo not given) false (0)

----------
- Test system: HCT-15
- measurement_description: NCI tumour cell line growth inhibition, 48 h
measured_quantity: log10(GI50) (log10 of the value in µM)
Give log10 of GI50, with GI50 taken in µM.

COC(=O)CC(c1cn(S(=O)(=O)c2ccc(C)cc2)c2ccccc12)C1C[C@@H](C(=O)OC)N(C(=O)OC(C)(C)C)C1=O (stereo not given in full)    1.42
C=C(C)C(=O)OC1CCC2(C)C(CCC3C2CCC2(C)C(c4ccc(=O)oc4)CC4OC432)C1 (stereo not given)    0.83
CC(=O)Nc1oc(C)c(C)c1S(=O)(=O)c1ccc(Cl)cc1    1.62
COc1ccc2nc3cc(Cl)ccc3c(Nc3ccccc3-c3ccccc3Nc3c4ccc(Cl)cc4nc4ccc(OC)cc34)c2c1    1.16
CC(C)c1ccc(C(O)(C(=O)O)c2ccc(C(C)C)cc2)cc1    1.67
CC(C)(C)c1cc(C(O)(C(F)(F)F)C(F)(F)F)c2c(c1)C(C(F)(F)F)(C(F)(F)F)OC(c1ccccc1)(C(C)(C)C)N2 (stereo not given)    0.55
C/C(=N/NC(N)=S)c1ccc2ccccc2c1    1.35
O=[N+]([O-])c1oc2ccc3ccccc3c2c1CCO    0.55

Consider the compound shown here: CN(C)c1ccc(C=c2c3cc(O)ccc3n3c2cc(-c2ccccc2)[n+]3C)cc1 What is its recorded log10(GI50)? 1.26

Field entry: CC(C)Oc1cccc(N2C(Nc3ccccc3)=Nc3ccncc3S2(=O)=O)c1 1.31

Try this compound next: Cc1cc(C)nc(NS(=O)(=O)c2ccc(NN=c3c4ccccc4n(C)c4ccccc34)cc2)n1 1.51

Ok, now O=C(C#Cc1ccccc1)NC/C=C/c1ccccc1 1.59

Follow-up entry: O=c1ccs[nH]1 1.06

Try O=C(C[C@H](NC(=O)OCc1ccccc1)C(=O)NC1Cc2ccccc2OC1=O)OCc1ccccc1 (stereo not given in full) next. 1.66

Would you mind doing COC(=O)[C@H](Cc1ccccc1)NC(=O)c1ccc(CNC(=O)/C=C/c2cccc(Oc3ccccc3)c2)cc1 as well? 0.80

Please do the same for O=C1NC(c2ccccc2)N=C2Oc3ccccc3C=C12 (stereo not given) as well. -0.82

How about this compound: COC(=O)c1cc(Cl)ccc1NC(=O)c1ccc([N+](=O)[O-])cc1 1.51

Same for CC12c3c4cccc3Oc3cc(N)cc(c31)Oc1cc(N)cc(c12)O4 0.62

What do we get for CCOC(=O)C1=c2[nH]c3cccc4cccc(c43)n2C(=O)CC1 ? 1.59

Now the same for CC(=O)NC1C(OCc2ccccc2)OC(CO)C(O)C1OC(C)C(=O)NC(C(=O)NC(CCC(=O)NCCCCNc1c2ccccc2nc2cccc([N+](=O)[O-])c12)C(N)=O)C(C)C (stereo not given) 0.51

For CN1CN(c2ccccc2)C2(CCN(C3Nc4ccccc4O3)CC2)C1=O (stereo not given) then? 1.18

Same for CCOC(OCC)C(CCc1ccccc1)c1c(N)nc(N)[nH]c1=O (stereo not given) 1.84

// next record CSC(=NC1=NC(C(F)(F)F)(C(F)(F)F)N=C(c2ccccc2)O1)SC 0.69

----------
- System: U-251
- measurement_description: NCI tumour cell line growth inhibition, 48 h
Active and inactive are the calls of the source. Rule as the data show it: active = GI50 up to about 1.1 µM and inactive = higher.
# key: entry, value: GI50

Examples with answers:
c1cc(-c2ccsc2-c2ccsc2)cs1    > 100 µM (inactive)
CCOC(=O)C12CCSC1C1(C#N)C(C#N)=CC2(N=P(c2ccccc2)(c2ccccc2)c2ccccc2)n2c(=O)n(-c3ccccc3)c(=O)n21 (configuration not stated)    42.4 µM (inactive)
Cc1ncc([N+](=O)[O-])n1CCNS(=O)(=O)CCCn1ccnc1[N+](=O)[O-]    > 100 µM (inactive)
CCOP(=O)(OCC)C(N)c1ccc(Cl)cc1 (configuration not stated)    > 100 µM (inactive)
NC(=O)c1cc2cc(Cl)cc(Cl)c2o/c1=N\c1ccc(F)cc1    19.6 µM (inactive)
Cc1ccc(NC(=O)CSc2nnc(Cc3ccccc3)o2)c(C)c1    > 100 µM (inactive)

Continue with the compound presented below.
Requested read-out: GI50. Entry: O=C(NNCC(F)(F)F)c1ccncc1 > 100 µM (inactive)

----------
- Tested on: RXF 393
- measurement_description: NCI tumour cell line growth inhibition, 48 h
Calls of active or inactive are those of the source. Cut-off read from the data, not from the text of the source: active = GI50 up to about 1.1 µM and inactive = higher.
Answer with one of the outcomes given here: active, inactive

Worked examples, 4 compounds total:
O=C1Nc2ccccc2C1=Nc1ccc(S(=O)(=O)Nc2nccs2)cc1    inactive
Cc1ccc(O)c(-c2cc(-c3cccc(Br)c3)c(C#N)c(N)n2)c1    inactive
CC1=CC(=O)[C@@H](O)[C@]2(C)[C@H]3[C@@]4(O)OC[C@]35[C@H]([C@@H](C)[C@H]4O)[C@@H](O)C(=O)O[C@@H]5C[C@@H]12    active
O=C(C[C@H](NC(=O)OCc1ccccc1)C(=O)NC1Cc2ccccc2OC1=O)OCc1ccccc1 (stereo partly drawn)    inactive

Dear colleague, could you share the recorded outcome for C[C@H](CCCOS(C)(=O)=O)[C@H]1CC[C@H]2[C@@H]3CC[C@@H]4C[C@H](OS(C)(=O)=O)CC[C@]4(C)[C@H]3CC[C@]12C when you have a moment? inactive

Now the compound Cc1ccc(S(=O)(=O)Nc2nnc(S(N)(=O)=O)s2)cc1 inactive

Can you check CN(C)CCSc1nccc(-c2cc3ccccc3s2)n1 next? inactive

Same thing, different compound: COc1cc2c(cc1OC)C(Cc1ccc(Oc3cc(CC4c5cc(OC)c(OC)cc5CCN4C)ccc3O)cc1)N(C)CC2 (stereo not drawn) inactive

Input Cn1c(=O)c2nc(CCCCC(=O)O)[nH]c2n(C)c1=O inactive

----------
- Test system: SF-295
- measurement_description: NCI tumour cell line growth inhibition, 48 h
Calls of active or inactive are those of the source. Cut-off read from the data, not from the text of the source: active = GI50 up to about 1.1 µM and inactive = higher.
measured_quantity: GI50

Solved cases (8 shown):
CN(C)c1n2c3cc([N+](=O)[O-])ccc3[n+]3c(N(C)C)n4ccccc4c3c2c2cccc[n+]12.[O-][Cl+3]([O-])([O-])[O-].[O-][Cl+3]([O-])([O-])[O-]    > 100 µM (inactive)
N=C(NNS(=O)(=O)c1ccccc1)Oc1ccc(Br)cc1Br    > 100 µM (inactive)
CO/N=C(/C(=O)OC)c1ccccc1COc1cccc(C(F)(F)F)c1    7.23 µM (inactive)
COC(=O)C(Cc1cc(OC)c(OC)c(OC)c1)C(=O)OC    > 320 µM (inactive)
COCn1c(C)c(C)c2c(=O)oc(N(C)C)nc21    > 100 µM (inactive)
COc1cccc2c1[C@]1(O)C(O)CCCC21 (some centres undefined)    > 100 µM (inactive)
c1ccc(P(=Nc2ccccc2N=P(c2ccccc2)(c2ccccc2)c2ccccc2)(c2ccccc2)c2ccccc2)cc1    1.11 µM (active)
COC(=O)C1C(O)C(C(=O)OC)C(C)N(C)C1C (centres undefined)    > 100 µM (inactive)

Could you share which GI50 value was measured for COC1OC2=CCC3C(=O)NC(=O)C3C2[C@H](OCc2ccccc2)C1OCc1ccccc1 (some centres undefined) ? 18.1 µM (inactive)

Request: C#Cc1cc(-c2nc3ccccc3s2)ccc1N 20 µM (inactive)

Now try O=C(O)CC(NC(=O)Nc1ccc([N+](=O)[O-])cc1)C(=O)Nc1ccc([N+](=O)[O-])cc1 (centres undefined) . > 100 µM (inactive)

Same question for O=[N+]([O-])c1c(F)c(F)c2c(c1F)N(CCCCCl)c1ccccc1S2 please. 16.6 µM (inactive)

Same for CC(C)Oc1cccc(N2C(Nc3ccccc3)=Nc3ccncc3S2(=O)=O)c1 23.1 µM (inactive)

Ok, now COC(=O)c1ccc(C(=O)OC)c2nc3cc(Cl)ccc3nc12 > 100 µM (inactive)

Consider next the molecule Cc1ccc(S(=O)(=O)Nc2nnc(S(N)(=O)=O)s2)cc1 in the same way. > 100 µM (inactive)

How about O=C(N/C(=C\c1ccc(/C=C(\NC(=O)c2ccccc2)c2nc3cc([N+](=O)[O-])ccc3[nH]2)cc1)c1nc2cc([N+](=O)[O-])ccc2[nH]1)c1ccccc1 ? 43.1 µM (inactive)

Next: Cc1ccc([N+](=O)[O-])cc1S(=O)(=O)Nc1ccc(C2=NOC(c3cccs3)C2)cc1 (centres undefined) 3.9 µM (inactive)

Do the same for C#CC1(O)CCC2[C@@H]3CCc4cc(Oc5nc(F)nc(-c6c7ccccc7cn6C)n5)ccc4C3CC[C@@]21C (some centres undefined) please > 100 µM (inactive)

Next molecule up: Cc1ncc([N+](=O)[O-])n1CCNS(=O)(=O)CCCn1ccnc1[N+](=O)[O-] > 100 µM (inactive)
